In this section we review reported pIC50 values for a set of molecules.
Target: OATP1B3 (Homo sapiens)
Construct: expressed in transfected cells; host or cells: HEK293 (recombinant baculovirus-mediated transduction)
Sequence (Q9NPD5 whole entry): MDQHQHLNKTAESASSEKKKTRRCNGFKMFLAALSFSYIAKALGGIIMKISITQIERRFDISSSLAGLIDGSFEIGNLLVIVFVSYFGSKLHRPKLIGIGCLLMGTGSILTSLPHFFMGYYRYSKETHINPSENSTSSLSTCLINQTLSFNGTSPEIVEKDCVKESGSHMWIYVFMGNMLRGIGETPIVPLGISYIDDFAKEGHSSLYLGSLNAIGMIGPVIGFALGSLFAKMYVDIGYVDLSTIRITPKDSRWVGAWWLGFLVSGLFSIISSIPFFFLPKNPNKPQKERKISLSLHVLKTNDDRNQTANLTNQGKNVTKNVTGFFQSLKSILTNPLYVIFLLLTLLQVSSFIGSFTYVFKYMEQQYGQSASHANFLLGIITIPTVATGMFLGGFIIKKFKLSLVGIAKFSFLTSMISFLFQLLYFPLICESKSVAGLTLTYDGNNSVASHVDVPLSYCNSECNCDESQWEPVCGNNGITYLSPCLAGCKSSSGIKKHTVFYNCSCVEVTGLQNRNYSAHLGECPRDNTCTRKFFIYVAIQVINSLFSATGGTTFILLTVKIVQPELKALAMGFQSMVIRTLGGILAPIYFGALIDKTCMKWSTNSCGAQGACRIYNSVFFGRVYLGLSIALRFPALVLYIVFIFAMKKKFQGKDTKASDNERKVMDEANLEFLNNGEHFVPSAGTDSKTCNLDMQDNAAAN
Assay: OATP1B3 inhibition with fluorescent substrate 8-Fluo-cAMP in HEK293 cells
Format: cell-based
Conditions: 2.5 µM 8-Fluo-cAMP, 5 min, 30 min preincubation
Excerpt: 8- (2- [Fluoresceinyl]aminoethylthio)adenosine- 3', 5'- cyclic monophosphate (8-Fluo-cAMP) was acquired from Biolog Life Science Institute (Bremen, Germany), 4′,5′-dibromofluorescein was acquired from Sigma-Aldrich (St. Louis, MO, USA) and 2′,7′-dichlorofluorescein was acquired from Santa Cruz Biotechnology (Dallas, TX, USA). […]
Lab note: report pIC50 as minus log10 of the concentration in molar units, number only.

• Cc1onc(-c2c(Cl)cccc2Cl)c1C(=O)N[C@@H]1C(=O)N2[C@@H]1SC(C)(C)[C@@H]2C(=O)O = 5.37

We now examine a further molecule.
**Q:** What value of pIC50 has been reported for the following molecule? `Cc1onc(-c2c(F)cccc2Cl)c1C(=O)N[C@@H]1C(=O)N2[C@@H]1SC(C)(C)[C@@H]2C(=O)O`
**A:** 4.33

###

Biological target: OATP1B1 (Homo sapiens, UniProt Q9Y6L6)
Construct: expressed in transfected cells; host or cells: HEK293 (recombinant baculovirus-mediated transduction)
Sequence (Q9Y6L6 1-691): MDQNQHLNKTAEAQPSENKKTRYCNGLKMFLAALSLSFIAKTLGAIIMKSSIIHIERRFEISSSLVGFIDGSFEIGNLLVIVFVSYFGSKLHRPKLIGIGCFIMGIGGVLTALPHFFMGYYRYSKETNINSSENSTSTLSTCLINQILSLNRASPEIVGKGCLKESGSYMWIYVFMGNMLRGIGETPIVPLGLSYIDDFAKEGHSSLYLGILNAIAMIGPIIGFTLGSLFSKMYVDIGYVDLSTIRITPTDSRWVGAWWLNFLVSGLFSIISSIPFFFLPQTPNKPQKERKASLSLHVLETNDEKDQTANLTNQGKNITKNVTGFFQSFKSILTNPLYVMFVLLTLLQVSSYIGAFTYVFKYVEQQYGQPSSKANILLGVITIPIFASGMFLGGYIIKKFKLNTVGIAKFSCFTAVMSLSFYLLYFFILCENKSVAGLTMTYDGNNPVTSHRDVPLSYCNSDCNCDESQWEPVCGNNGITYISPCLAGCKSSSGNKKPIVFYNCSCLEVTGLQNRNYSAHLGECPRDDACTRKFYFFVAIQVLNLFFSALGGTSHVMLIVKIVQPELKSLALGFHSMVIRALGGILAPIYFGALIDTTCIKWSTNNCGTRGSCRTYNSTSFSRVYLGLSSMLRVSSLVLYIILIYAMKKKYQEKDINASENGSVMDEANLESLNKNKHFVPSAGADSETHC
Experiment: Irreversible inhibition (reversibility) assay of OATP1B1
Assay type: cell-based
Details: cells washed three times before the transport assay; read-out: IC50 OATP1B1, inhibitor present only during the preincubation
// pIC50 lookup, one value per entry
As a rule, pIC50 stands for the negative log10 of the concentration, concentration in M.

- Cc1onc(-c2c(Cl)cccc2Cl)c1C(=O)N[C@@H]1C(=O)N2[C@@H]1SC(C)(C)[C@@H]2C(=O)O [Dicloxacillin]: 3.62

**Q:** Record Cc1onc(-c2c(F)cccc2Cl)c1C(=O)N[C@@H]1C(=O)N2[C@@H]1SC(C)(C)[C@@H]2C(=O)O [Flucloxacillin] : what is its pIC50 with OATP1B1 (Homo sapiens, UniProt Q9Y6L6)?
**A:** 3.34
